All figures here come from patent US20150045391A1.

# experiment: Plasma exposure after a single IP dose of filanesib and/or pomalidomide (Example 1)
# Format: in vivo
# measurement.context: mouse; filanesib in plasma; male CD-1 mice; single IP bolus filanesib 12.5 mg/kg alone or with pomalidomide 10 mg/kg
# Method: Naïve male CD-1 mice were administered a single intraperitoneal (“IP”) bolus dose of filanesib (12.5 mg/kg) and/or pomalidomide (10 mg/kg). Blood was collected at 4, 8, 12, 16, 20 and 24 hours via cardiac puncture, ethylenediaminetetraacetic acid (“EDTA”) plasma was prepared, and concentration of plasma analytes were measured.
quantity.name: Cmax

{"molecule": "CON(C)C(=O)N1N=C(c2cc(F)ccc2F)S[C@@]1(CCCN)c1ccccc1.Cl [filanesib]", "readout.value": "1660 ng/mL"}

====

# experiment: Plasma exposure after a single IP dose of filanesib and/or pomalidomide (Example 1)
# Assay type: in vivo
# measurement.context: mouse; pomalidomide in plasma; male CD-1 mice; single IP bolus pomalidomide 10 mg/kg alone or with filanesib 12.5 mg/kg

{"compound": "Nc1cccc2c1C(=O)N(C1CCC(=O)NC1=O)C2=O (stereo not shown) [pomalidomide]", "Tmax": "4.98 min"}

====

# experiment: Plasma exposure after a single IP dose of filanesib and/or pomalidomide (Example 1)
# Assay type: in vivo
# measurement.context: mouse; pomalidomide in plasma; male CD-1 mice; single IP bolus pomalidomide 10 mg/kg alone or with filanesib 12.5 mg/kg
# Description: Naïve male CD-1 mice were administered a single intraperitoneal (“IP”) bolus dose of filanesib (12.5 mg/kg) and/or pomalidomide (10 mg/kg). Blood was collected at 4, 8, 12, 16, 20 and 24 hours via cardiac puncture, ethylenediaminetetraacetic acid (“EDTA”) plasma was prepared, and concentration of plasma analytes were measured.

{"compound": "Nc1cccc2c1C(=O)N(C1CCC(=O)NC1=O)C2=O (stereo not shown) [pomalidomide]", "AUC(0-t)": "3080 ng·h/mL"}

====

# experiment: Plasma exposure after a single IP dose of filanesib and/or pomalidomide (Example 1)
# Assay type: in vivo
# measurement.context: mouse; pomalidomide in plasma; male CD-1 mice; single IP bolus pomalidomide 10 mg/kg alone or with filanesib 12.5 mg/kg

{"compound": "Nc1cccc2c1C(=O)N(C1CCC(=O)NC1=O)C2=O (stereo not shown) [pomalidomide]", "Cmax": "956 ng/mL"}
